Target: Human recombinant Top1 (Homo sapiens, UniProt P11387)
Construct: made in house
Sequence (P11387 whole entry): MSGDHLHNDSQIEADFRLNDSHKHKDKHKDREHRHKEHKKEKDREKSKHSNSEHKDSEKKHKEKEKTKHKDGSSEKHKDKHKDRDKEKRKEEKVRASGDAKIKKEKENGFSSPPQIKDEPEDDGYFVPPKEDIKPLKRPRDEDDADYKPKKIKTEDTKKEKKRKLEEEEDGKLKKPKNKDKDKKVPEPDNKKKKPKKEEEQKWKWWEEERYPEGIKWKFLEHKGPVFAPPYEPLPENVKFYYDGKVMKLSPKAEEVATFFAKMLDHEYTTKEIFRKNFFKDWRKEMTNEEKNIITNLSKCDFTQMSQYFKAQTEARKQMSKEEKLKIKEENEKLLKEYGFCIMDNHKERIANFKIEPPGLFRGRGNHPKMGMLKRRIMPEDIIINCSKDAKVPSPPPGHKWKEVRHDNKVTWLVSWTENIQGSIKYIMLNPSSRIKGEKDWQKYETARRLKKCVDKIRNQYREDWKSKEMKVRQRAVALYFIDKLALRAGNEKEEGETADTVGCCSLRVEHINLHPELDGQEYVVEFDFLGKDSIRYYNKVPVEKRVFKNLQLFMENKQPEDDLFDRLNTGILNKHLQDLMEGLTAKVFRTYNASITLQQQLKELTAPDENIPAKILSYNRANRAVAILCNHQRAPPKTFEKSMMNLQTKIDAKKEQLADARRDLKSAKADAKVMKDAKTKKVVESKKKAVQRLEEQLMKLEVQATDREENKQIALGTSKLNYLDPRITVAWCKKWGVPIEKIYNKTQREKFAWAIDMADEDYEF
Test: Top1-mediated DNA cleavage assay
Format: biochemical

- compound: "COc1cc2c(=O)n(CCCN3CCOCC3)c3c(c2cc1OC(=O)c1ccccc1)C(=O)c1cc2c(cc1-3)OCO2 [Compound 13]"
  Top1 inhibitory activity (in words): "weak Top1 poisons"
- compound: "COc1cc2c3c(n(CCCN4CCOCC4)c(=O)c2cc1OC(=O)c1ccccc1)-c1cc2c(cc1C3=O)OCO2 [Compound 18]"
  Top1 inhibitory activity (in words): "weak Top1 poisons"

###

Target: Human recombinant Top1 (Homo sapiens, UniProt P11387)
Construct: made in house
Test: Top1-mediated DNA cleavage assay
Type: biochemical
Design: key: 0, no inhibitory activity; +, between 20 and 50% activities; ++, between 50 and 75% activity; +++, between 75 and 95% activity; ++++, equipotent
Conditions: graded relative to 1 μM camptothecin
metric name: Top 1 Cleavage

Enquiry: Find the measured Top 1 Cleavage of COC(=O)CCC(=O)Oc1cc2c(=O)n(CCCN3CCOCC3)c3c(c2cc1OC)C(=O)c1cc2c(cc1-3)OCO2 [Compound 17] and report it.
Return: 0
